# Lookup of reported Ratio IC50 keyed by entry
test system: Trypanosoma brucei brucei; assay: Potency index, ratio of IC50 for hydroxytyrosol to IC50 for test compound against bloodstream form of Trypanosoma brucei brucei S16; type: functional
PARAMETER_MEASURED: Ratio IC50

* CC(=O)OCCc1ccc(O)c(O)c1 | 1
* CCCCCCCC(=O)OCCc1ccc(O)c(O)c1 | 5
* NCCc1ccc(O)c(O)c1 | 5
* Oc1ccc(CCN=C=S)cc1O | 5
* CCCC(=O)OCCc1ccc(O)c(O)c1 [HYDROXYTYROSOL BUTANOATE] | 5
* CCCCCCCCCCCCSCCc1ccc(OCc2ccccc2)c(OCc2ccccc2)c1 | 5
* CCCCCCCCCC(=O)NCCc1ccc(O)c(O)c1 | 5
* CCCCCCCCCCCC(=O)NCCc1ccc(O)c(O)c1 | 5
* CCCCCCCCCCCCCCCC(=O)OCCc1ccc(O)c(O)c1 [HYDROXYTYROSOL PALMITATE] | 20
* CCCCCCCCCCCCOCCc1ccc(O)c(O)c1 | 75
* CCCCCCCCCCCCSCCc1ccc(OCc2ccc(OC)cc2)c(OCc2ccc(OC)cc2)c1 | 5
* CCCCCCCCCCCC(=O)OCCc1ccc(O)c(O)c1 | 132
* CCCCCCCCCCOCCc1ccc(O)c(O)c1 | 37
* CCCCCCCCCCCCNC(=S)NCCc1ccc(O)c(O)c1 | 62
* CCCCCCCCCCNC(=S)NCCc1ccc(O)c(O)c1 | 64
* CCCCCCCCCC(=O)OCCc1ccc(O)c(O)c1 [HYDROXYTYROSOL DECANOATE] | 79
* CCCCCCCCCCCCCC(=O)OCCc1ccc(O)c(O)c1 | 21

* * *

test system: Leishmania donovani; assay: Antileishmanial activity against Leishmania donovani MHOM/ET/67/HU3 intracellular amastigotes infected in human THP1 cells after 72 hrs by luciferase coupled luminescence assay; type: functional, cell-based; conditions: MHOM/ET/67/HU3, THP-1, 72 h
Below, each entry is listed alongside its reported IC50.
PARAMETER_MEASURED: IC50

* CCCCCCCCCC(=O)OCCc1ccc(O)c(O)c1 [HYDROXYTYROSOL DECANOATE] | 8.44 µM
* CCCCCCCC(=O)OCCc1ccc(O)c(O)c1 | > 10 µM
* OCCc1ccc(O)cc1 | > 10 µM
* CCCCCCCC(=O)OCCc1ccc(O)cc1 | > 10 µM
* CC(=O)OCCc1ccc(O)c(O)c1 | > 10 µM
* C[C@@H]1[C@H](O)[C@@H](C)/C=C/C=C/C=C/C=C/C=C/C=C/C=C/[C@H](O[C@@H]2O[C@H](C)[C@@H](O)[C@H](N)[C@@H]2O)C[C@@H]2O[C@](O)(C[C@@H](O)C[C@@H](O)[C@H](O)CC[C@@H](O)C[C@@H](O)CC(=O)O[C@H]1C)C[C@H](O)[C@H]2C(=O)O | 0.1 µM
* CCCCCCCCCCCCCCCC(=O)OCCc1ccc(O)c(O)c1 [HYDROXYTYROSOL PALMITATE] | > 10 µM
* CCCCCC(=O)OCCc1ccc(O)cc1 | > 10 µM
* CCCCCCCCCCCCCC(=O)OCCc1ccc(O)c(O)c1 | > 10 µM
* CCCC(=O)OCCc1ccc(O)c(O)c1 [HYDROXYTYROSOL BUTANOATE] | > 10 µM
* CCCCCCCCCCCC(=O)OCCc1ccc(O)c(O)c1 | > 10 µM

* * *

Reported selectivity ratio values follow for various compounds
experiment: Selectivity index, ratio of IC50 for human MRC5 cells to IC50 for intracellular amastigotes of Leishmania donovani MHOM/ET/67/HU3 infected in human THP1 cells; type: toxicity, cell-based; details: read-out: Ratio IC50
PARAMETER_MEASURED: selectivity ratio

• CCCCCCCC(=O)OCCc1ccc(O)c(O)c1 = 10.3
• OCCc1ccc(O)cc1 = 5
• CCCCCCCCCC(=O)OCCc1ccc(O)c(O)c1 [HYDROXYTYROSOL DECANOATE] = 8.4
• CCCCCCCC(=O)OCCc1ccc(O)cc1 = 13.3
• CCCC(=O)OCCc1ccc(O)c(O)c1 [HYDROXYTYROSOL BUTANOATE] = 7.1
• CCCCCC(=O)OCCc1ccc(O)cc1 = 16.6

* * *

assay: Selectivity index, ratio of IC50 for human MRC5 cells to IC50 for bloodstream form of Trypanosoma brucei brucei S16; type: toxicity, cell-based; conditions: read-out: Ratio IC50
Entries and their measured selectivity ratio follow.
PARAMETER_MEASURED: selectivity ratio

• CCCCCCCCCCCC(=O)OCCc1ccc(O)c(O)c1 = 101 to 106
• CC(=O)OCCc1ccc(O)c(O)c1 = > 1
• OCCc1ccc(O)c(O)c1 [HYDROXYTYROSOL] = > 1
